Test Summary: total protein half-life in vivo (active degradation + dilution); higher = more stable protein
Setup Conditions: wild type E. coli NCM3722; growth: C-lim chemostat; doubling time 3 h
Assay Metric: total protein half-life in vivo

Task item: Entry MMKRNILAVIVPALLVAGTANAAEIYNKDGNKVDLYGKAVGLHYFSKGNGENSYGGNGDMTYARLGFKGETQINSDLTGYGQWEYNFQGNNSEGADAQTGNKTRLAFAGLKYADVGSFDYGRNYGVVYDALGYTDMLPEFGGDTAYSDDFFVGRVGGVATYRNSNFFGLVDGLNFAVQYLGKNERDTARRSNGDGVGGSISYEYEGFGIVGAYGAADRTNLQEAQPLGNGKKAEQWATGLKYDANNIYLAANYGETRNATPITNKFTNTSGFANKTQDVLLVAQYQFDFGLRPSIAYTKSKAKDVEGIGDVDLVNYFEVGATYYFNKNMSTYVDYIINQIDSDNKLGVGSDDTVAVGIVYQF : reported total protein half-life in vivo = ?
Reply: 3.19 h

Task item: Param item = MDLRDLKTFLHLAESRHFGRSARAMHVSPSTLSRQIQRLEEDLGQPLFVRDNRTVTLTEAGEELRVFAQQTLLQYQQLRHTIDQQGPSLSGELHIFCSVTAAYSHLPPILDRFRAEHPSVEIKLTTGDAADAMEKVVTGEADLAIAGKPETLPGAVAFSMLENLAVVLIAPALPCPVRNQVSVEKPDWSTVPFIMADQGPVRRRIELWFRRNKISNPMIYATVGGHEAMVSMVALGCGVALLPEVVLENSPEPVRNRVMILERSDEKTPFELGVCAQKKRLHEPLIEAFWKILPNHK ; retrieve measured total protein half-life in vivo.
Reply: 2.78 h

Attribution: the supplement of paper PMC11246515
